The values you see were collected from paper PMC6831621.

- Substrate: CC(=O)N[C@H]1[C@H](Oc2ccc3c(C)cc(=O)oc3c2)O[C@H](CO)[C@@H](O[C@@H]2O[C@H](CO)[C@@H](O)[C@H](O)[C@H]2NC(C)=O)[C@@H]1O
- METHOD SUMMARY: fluorogenic substrate hydrolysis, Michaelis-Menten non-linear fit
- Type: biochemical, Pseudoalteromonas aurantia
- MEASUREMENT CONTEXT: McIlvaine's buffer pH 5.0, substrate 0.01-0.6 mM, temperature not given for kinetics
Each entry below lists one item and its recorded kcat value.
Please reply with the bare figure in s⁻¹ and do not write the unit itself.

{"PROTEIN": "Chi23 (Pseudoalteromonas aurantia; Q261A) (protein, pET22b NdeI/XhoI, His-tagged (C-terminal by primer design), E. coli BL21(DE3); monomer; forward primer encodes MSKTITYYNS, reverse primer encodes AQSLNS at the C-terminus) MSKTITYYNSGAVPLINASELPYDVVNLAFLSSSSNNPFNLVLSGAIAATESSFTTNTIEAIKVMQHKGQKVLISFGGGTMGSNAYRSLSEDTAKLADSLASFVKNNQLDGVDIDYEDTAAFTGQAGYDGAQFLISLTQELRKRLPSPDYIISHAPQPPYLEQGGYMAGYVEVVELVGQEIDWLNVQFYNNPPWSANPDQIVSSYLNYTKLPNMSPEKVIAGFPVTQNDAGSGYMPVQTIINEVIKPIQQQSSLGGIMNWAFSSDHNGDWIKAIAQSLNS", "MEASUREMENT UNITS": "s⁻¹", "kcat": 0.0005}

Switching to the query record.
Prompt line: Sample Chi23 (Pseudoalteromonas aurantia; G79A) (protein, pET22b NdeI/XhoI, His-tagged (C-terminal by primer design), E. coli BL21(DE3); monomer; forward primer encodes MSKTITYYNS, reverse primer encodes AQSLNS at the C-terminus) MSKTITYYNSGAVPLINASELPYDVVNLAFLSSSSNNPFNLVLSGAIAATESSFTTNTIEAIKVMQHKGQKVLISFGGATMGSNAYRSLSEDTAKLADSLASFVKNNQLDGVDIDYEDTAAFTGQAGYDGAQFLISLTQELRKRLPSPDYIISHAPQPPYLEQGGYMAGYVEVVELVGQEIDWLNVQFYNNPPWSANPDQIVSSYLNYTKLPNMSPEKVIAGFPVTQNDAGSGYMPVQTIINEVIKPIQQQSSLGGIMNWQFSSDHNGDWIKAIAQSLNS — what was its kcat?
Response line: 0.0295
